Study Target: Brd3 (Homo sapiens)
Assay Notes: Concentration-dependent BET degradation, immunoblot, HeLa cells
Format: cell-based
Design: endogenous in cells; host or cells: HeLa
Test Context: Brd3, 6 h treatment, 1 nM-10 μM, read-out: Dmax (%) maximum degradation observed

{"columns": ["Compound", "Dmax"],
 "data": [
  ["CCCC(NC(=O)/C(C#N)=C/c1nccs1)c1ccc(OCCOCCOCCOCCOCCOCCOCCNC(=O)c2ccc(-c3ccc4c(c3)[C@H](Nc3ccc(Cl)cc3)C[C@H](C)N4C(C)=O)cc2)cc1 (some centres unmarked) [Example 05IB9]", "51 to 70%"],
  ["CCCC(NC(=O)C(C#N)Cc1cccc(Br)n1)c1ccc(OCCOCCOCCOCCOCCOCCOCCNC(=O)c2ccc(-c3ccc4c(c3)[C@H](Nc3ccc(Cl)cc3)C[C@H](C)N4C(C)=O)cc2)cc1 (some centres unmarked) [Example 05IB12]", "26 to 50%"],
  ["CCCC(NC(=O)/C(C#N)=C/c1cccc(Br)n1)c1ccc(OCCOCCOCCOCCOCCOCCOCCNC(=O)c2ccc(-c3ccc4c(c3)[C@H](Nc3ccc(Cl)cc3)C[C@H](C)N4C(C)=O)cc2)cc1 (some centres unmarked) [Example 05IB6]", "≥ 71%"],
  ["CCCC(NC(=O)/C(C#N)=C/c1nc(Cl)ccc1Cl)c1ccc(OCCOCCOCCOCCOCCOCCOCCNC(=O)c2ccc(-c3ccc4c(c3)[C@H](Nc3ccc(Cl)cc3)C[C@H](C)N4C(C)=O)cc2)cc1 (some centres unmarked) [Example 05IB10]", "≥ 71%"],
  ["CCCC(NC(=O)/C(C#N)=C/c1cccc(Br)n1)c1ccc(OCC=NOCC(=O)NCCOCCOCCOCCNC(=O)c2ccc3c(c2)[C@H](Nc2ccc(Cl)cc2)C[C@H](C)N3C(C)=O)cc1 (some centres unmarked) [Example 05IB2]", "26 to 50%"]
]}

----------
The reader will find reported DC50 values listed item by item below.
Study Target: Brd2 (Homo sapiens, UniProt P25440)
Sequence (P25440 whole entry): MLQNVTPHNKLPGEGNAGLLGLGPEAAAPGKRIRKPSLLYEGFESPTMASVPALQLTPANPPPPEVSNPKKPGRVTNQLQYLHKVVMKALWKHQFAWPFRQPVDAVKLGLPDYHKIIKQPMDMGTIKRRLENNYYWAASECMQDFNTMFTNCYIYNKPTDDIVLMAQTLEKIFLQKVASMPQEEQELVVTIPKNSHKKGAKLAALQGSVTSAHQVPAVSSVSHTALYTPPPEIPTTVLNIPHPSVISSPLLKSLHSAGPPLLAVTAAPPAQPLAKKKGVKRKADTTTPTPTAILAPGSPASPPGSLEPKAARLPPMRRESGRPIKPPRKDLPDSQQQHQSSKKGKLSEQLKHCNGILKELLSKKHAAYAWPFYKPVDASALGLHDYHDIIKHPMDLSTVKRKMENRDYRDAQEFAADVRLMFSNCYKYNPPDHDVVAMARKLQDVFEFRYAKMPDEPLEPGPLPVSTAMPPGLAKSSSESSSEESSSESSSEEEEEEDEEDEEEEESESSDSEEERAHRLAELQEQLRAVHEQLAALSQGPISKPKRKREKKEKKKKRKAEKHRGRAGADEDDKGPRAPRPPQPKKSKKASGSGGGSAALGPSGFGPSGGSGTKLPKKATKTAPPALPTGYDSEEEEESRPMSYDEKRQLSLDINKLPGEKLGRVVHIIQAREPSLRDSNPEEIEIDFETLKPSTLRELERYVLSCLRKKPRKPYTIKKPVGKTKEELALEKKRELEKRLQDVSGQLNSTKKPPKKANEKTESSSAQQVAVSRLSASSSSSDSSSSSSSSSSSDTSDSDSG
Assay Notes: Concentration-dependent BET degradation, immunoblot, HEK293 cells
Assay type: cell-based
Set-up: endogenous in cells; host or cells: HEK293
Test Context: HEK293, Brd2, 6 h treatment, 1 nM-10 μM

{"columns": ["Compound", "DC50"],
 "data": [
  ["CCCC(NC(=O)/C(C#N)=C/c1cccc(Br)n1)c1ccc(OCC=NOCC(=O)NCCOCCOCCOCCOCCOCCNC(=O)c2ccc3c(c2)[C@H](Nc2ccc(Cl)cc2)C[C@H](C)N3C(C)=O)cc1 (stereo partly drawn)", "51 to 500 nM"],
  ["CCCC(NC(=O)/C(C#N)=C/c1cccc(Br)n1)c1ccc(OCC=NOCC(=O)NCCOCCNC(=O)c2ccc3c(c2)[C@H](Nc2ccc(Cl)cc2)C[C@H](C)N3C(C)=O)cc1 (stereo partly drawn)", "≤ 50 nM"],
  ["CCCC(NC(=O)/C(C#N)=C/c1nccs1)c1ccc(OCCOCCOCCOCCOCCOCCOCCNC(=O)c2ccc(-c3ccc4c(c3)[C@H](Nc3ccc(Cl)cc3)C[C@H](C)N4C(C)=O)cc2)cc1 (stereo partly drawn)", "≤ 50 nM"]
]}

----------
# Lookup of reported Dmax keyed by entry
Study Target: Brd3 (Homo sapiens, UniProt Q15059)
Sequence (Q15059 whole entry): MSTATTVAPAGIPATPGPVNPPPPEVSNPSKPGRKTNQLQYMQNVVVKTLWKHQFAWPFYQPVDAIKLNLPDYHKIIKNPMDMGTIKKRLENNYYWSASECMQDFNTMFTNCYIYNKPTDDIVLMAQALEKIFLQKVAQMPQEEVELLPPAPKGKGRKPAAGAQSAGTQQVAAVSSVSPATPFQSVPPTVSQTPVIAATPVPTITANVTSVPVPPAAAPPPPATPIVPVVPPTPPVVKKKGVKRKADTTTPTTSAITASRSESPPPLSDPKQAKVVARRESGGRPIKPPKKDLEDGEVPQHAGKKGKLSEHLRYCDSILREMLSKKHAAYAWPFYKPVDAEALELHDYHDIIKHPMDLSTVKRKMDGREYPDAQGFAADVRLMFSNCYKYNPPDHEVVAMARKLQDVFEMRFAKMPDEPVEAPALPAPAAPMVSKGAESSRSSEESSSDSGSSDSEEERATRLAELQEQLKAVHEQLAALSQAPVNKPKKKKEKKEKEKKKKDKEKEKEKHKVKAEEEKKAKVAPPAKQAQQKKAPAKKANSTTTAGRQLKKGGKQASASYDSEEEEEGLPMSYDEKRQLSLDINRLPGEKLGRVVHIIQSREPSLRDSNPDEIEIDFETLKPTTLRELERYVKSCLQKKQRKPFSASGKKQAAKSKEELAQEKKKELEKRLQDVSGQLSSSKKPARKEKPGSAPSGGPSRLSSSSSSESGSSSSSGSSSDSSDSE
Assay Notes: Concentration-dependent BET degradation, immunoblot, HeLa cells
Assay type: cell-based
Design: endogenous in cells; host or cells: HeLa
Test Context: Brd3, 6 h treatment, 1 nM-10 μM, read-out: Dmax (%) maximum degradation observed

{"columns": ["Compound", "Dmax"],
 "data": [
  ["CCCC(NC(=O)/C(C#N)=C/c1cccc(Br)n1)c1ccc(OCC=NOCC(=O)NCCOCCOCCOCCOCCOCCNC(=O)c2ccc3c(c2)[C@H](Nc2ccc(Cl)cc2)C[C@H](C)N3C(C)=O)cc1 (stereo partly drawn)", "≥ 71%"],
  ["CCCC(NC(=O)/C(C#N)=C/c1cccc(Br)n1)c1ccc(OCC=NOCC(=O)NCCOCCNC(=O)c2ccc3c(c2)[C@H](Nc2ccc(Cl)cc2)C[C@H](C)N3C(C)=O)cc1 (stereo partly drawn)", "26 to 50%"],
  ["CCCC(NC(=O)/C=C/c1cccc(Br)n1)c1ccc(OCCOCCOCCOCCOCCOCCOCCNC(=O)c2ccc(-c3ccc4c(c3)[C@H](Nc3ccc(Cl)cc3)C[C@H](C)N4C(C)=O)cc2)cc1 (stereo partly drawn)", "26 to 50%"]
]}

Data provenance is patent US20210283139A1.
